Cited source for all entries: PubChem BioAssay AID328

Test system: BDF1 mice, P388 leukemia ip, median survival T/C
Experiment: NCI In Vivo Anticancer Drug Screen. Data for tumor model P388 Leukemia (intraperitoneal) in B6D2F1 (BDF1) mice
Settings: endpoint: median survival time; dose: 12.5 mg/kg/injection; schedule: Q01DX009 (ip); vehicle: Klucel (hydroxypropylcellulose) (HPC)
Toxic doses and inconclusive results are not listed. Rule for the calls: active = survival T/C of 150% or more; inactive = T/C below 125% in these data.
Respond using exactly one of the listed classes: true (1) = active, false (0) = inactive

[[record]]
sample_smiles = "O.[Cu].[Cu]"
label = "false (0)"

[[record]]
sample_smiles = "CCN(C)c1nc(N(C)CC)c2nc(N(C)CC)nc(N(C)CC)c2n1"
label = "false (0)"

[[record]]
sample_smiles = "CCCCCCCCCCCCNCCCCCCCCCCCC"
label = "false (0)"

[[record]]
sample_smiles = "Nc1nc(N)c2cc(NCc3ccc(Br)cc3)ccc2n1"
label = "false (0)"

[[record]]
sample_smiles = "COc1cc2c(c(OC)c1OC)-c1ccc(SCc3ccccc3)c(=O)cc1[C@@H](NC(C)=O)CC2"
label = "true (1)"


We now examine a further molecule.
Hello, I am checking results. What call was entered for CC(=O)Nc1ccc(OCCOC(=O)Nc2ccc(C)cc2[N+](=O)[O-])cc1 ?
false (0)

----------
System: BDF1 mice, P388 leukemia ip, median survival T/C
Assay: NCI In Vivo Anticancer Drug Screen. Data for tumor model P388 Leukemia (intraperitoneal) in B6D2F1 (BDF1) mice
Conditions: endpoint: median survival time; dose: 50.0 mg/kg/injection; schedule: Q01DX009 (ip); vehicle: saline with Tween-80; higher = longer survival
Toxic doses and inconclusive results are not listed.
Reported T/C values follow for various compounds

Please review the following examples before continuing.
[[record]]
compound = "COc1cc(-c2nc3ccccc3c(=O)o2)cc(OC)c1OC"
observed_property = "T/C"
reading = "105 % of control"

[[record]]
compound = "CC1=NN(c2ccccc2)C(=O)C1C(=S)SC1CC(=O)NC1=O (stereo unspecified)"
observed_property = "T/C"
reading = "117 % of control"

[[record]]
compound = "CS(=O)CC(O)(c1ccccc1)c1ccccn1 (stereo unspecified)"
observed_property = "T/C"
reading = "103 % of control"


Returns the measured T/C for the input compound. Input: COc1cc(C=Nc2cccc(Cl)c2)ccc1N(CCCl)CCCl
95 % of control

Can you share its T/C? I mean this compound: NC(N)=Nc1ccc(F)cc1
110 % of control

I'd like to know its T/C. The compound in question is O=c1c2ccccc2[nH]c2cc3c(=O)c4ccccc4[nH]c3cc12
99 % of control

What measured T/C goes with COc1cc(OC)c(/C=C/c2ccncn2)c(OC)c1 ?
101 % of control

Field request: T/C | item: O=C1/C(=C/c2ccccc2O)SC(=S)N1CCCN1CCOCC1
95 % of control

Need T/C, item O=C(Nc1ccccc1C(=O)O)c1cc([N+](=O)[O-])cc([N+](=O)[O-])c1
117 % of control

Please give the measured T/C for this compound: C=CC(=O)NC(Cc1ccccc1)C(=O)O (stereo unspecified)
102 % of control

Look up T/C for this compound: Nc1nc(N)c2cc([N+](=O)[O-])ccc2n1
96 % of control

# get_value(readout='T/C', item= O=c1nc(Oc2ccccc2)nc2c3ccccc3ccn12 )
112 % of control
